# TARGET SYSTEM: T1, human CD3 epsilon (human, UniProt P07766)
# T1 chain: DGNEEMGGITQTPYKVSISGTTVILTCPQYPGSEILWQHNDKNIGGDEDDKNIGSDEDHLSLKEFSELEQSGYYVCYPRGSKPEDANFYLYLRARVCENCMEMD
# EXPERIMENT DESCRIPTION: SPR
pKd: −log10 of the molar value.

BINDER	pKd
15H2L3 (antibody, V domains shown) VH: EVQLLESGGGLVQPGGSLRLSCAASGFTFNTYAMNWVRQAPGKGLEWVARIRSKYNNYATYYAISVKDRFTISRDNSKNTLYLQMNSLRAEDTAVYYCVKHGNFGNSYLSYWAYWGQGTLVTVSS VL: QAVVTQEPSLTVSPGGTVTLTCQSSTGAVTTNNYANWVQQKPGHAFRGLIGGTKQRAPGVPARFSGSLLGGKAALTLSGVQPEDEAEYYCVLWYSNLWVFGGGTKLTVL	9.98
26H2L3 (antibody, V domains shown) VH: EVQLLESGGGLVQPGGSLRLSCAASGFTFNTYAMNWVRQAPGKGLEWVARIRSKYNNYATYYADSVKDRFTISRDNSKNTLYLQMNSLRAEDTAVYYCVKHGNFGNSYISWWAYWGQGTLVTVSS VL: QAVVTQEPSLTVSPGGTVTLTCKSSTGAVTTSNYANWVQQKPGHAFRGLIGGTNLHAPGVPARFSGSLLGGKAALTLSGVQPEDEAEYYCALWYSNLWVFGGGTKLTVL	8.40
15H3L2 (antibody, V domains shown) VH: EVQLLESGGGLVQPGGSLRLSCAASGFTFNTYAMNWVRQAPGKGLEWVARIRSKYNNYATYYAISVKDRFTISRDDSKNTLYLQMNSLRAEDTAMYYCVRHGNFGNSYLSYWAYWGQGTLVTVSS VL: QTVVTQEPSLTVSPGGTVTLTCQSSTGAVTTNNYANWVQQKPGQAPRALIGGTKQRAPGTPARFSGSLLGGKAALTLSGVQPEDEAEYYCVLWYSNLWVFGGGTKLTVL	9.69
